# experiment.summary: probe aWnt5a binding to arrayed compounds – biochemical, biotinylated probe, 635/667 nm fluorescence, primary screen (AID 1113);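 also: score merges 667 nm fluorescence intensity with signal-to-noise per printed feature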
# setup.conditions: small-molecule microarray, higher = more signal
Assign class by composite z-score: not lower than -0.08 means Fulfilled; lower than -0.08 means Not fulfilled.

                                   compound    group_label
0  O=C1OCC=C[C@H]2OC34C=CCN(c5ccc6ccccc6c5)C(=O)[C@H]3N(CCO)C(=O)[C@@H]4[C@@H]12 (some centres not stated)  Not fulfilled
1  CN(C)CCCC[C@@H]1NC(=O)[C@@H]2C[C@H](C(=O)NCCCCCN)[C@H](c3ccc(O)cc3)N2C1=O  Not fulfilled
2  COCC1C2CC[C@H]3C(OCc4ccc(F)cc4C(F)(F)F)OC[C@]4(C)[C@H]3C2=C(CN4C(=O)OC(C)(C)C)[C@H](C)C1COC (some centres not stated)      Fulfilled
3  CN(C)CCCCCCNC(=O)[C@@H]1C[C@@H]2C(=O)NCC(=O)N2[C@@H]1c1cccc(OCCO)c1      Fulfilled
4  C=C(/C(=C/C[C@@H](OC(=O)c1ccncc1)c1ccc(CO)o1)c1cc(C(=O)OC)ccc1OC)C(C)C      Fulfilled
5  COC(=O)[C@@]1(Cc2ccc(F)cc2)[C@H]2c3cc(C(=O)N(C)C)n(CCc4c[nH]c5ccc(OC)cc45)c3C[C@H]2CN1C(=O)c1ccccc1      Fulfilled

---

# experiment.summary: probe aInhba binding on compound microarray – biochemical, small-molecule microarray, 635/667 nm fluorescence, primary screen (AID 1148);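 also: score merges 667nm spot fluorescence with signal-to-noise for antibody binding to printed compounds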
# setup.conditions: higher = more signal
Listing of recorded composite z-score by entry.
parameter: composite z-score

compound	parameter	val
O=c1cccc(-c2cccc3ccccc23)o1	composite z-score	-0.0471
[N-]=[N+]=NCc1ccccc1C[C@]1(C(=O)NCCN2CCOCC2)N=C(c2ccc(OCCCO)cc2)O[C@H]1c1ccccc1CN=[N+]=[N-]	composite z-score	0.0155
C=CCC(OC(C)=O)[C@@H]1[C@@H](N(Cc2cc3ccccc3o2)C(=O)c2cccc3ccccc23)c2cc(OCCCO)ccc2N1C(=O)Cc1ccc2ccccc2c1 (some centres not stated)	composite z-score	-0.0589
CC(C)NC(=O)[C@@]1(c2ccc([N+](=O)[O-])cc2)CC(=O)N(C(C)C)[C@@H]1c1ccc(CO)cc1	composite z-score	-0.203
C=CCC(OC(C)=O)[C@@H]1[C@@H](N(Cc2cc3ccccc3o2)C(=O)c2ccc(-c3ccccc3)cc2)c2cc(OCCCO)ccc2N1C(=O)Cc1ccc2ccccc2c1 (some centres not stated)	composite z-score	0.0963
NC(=O)NCC#Cc1ccc2c(c1)[C@]1(C(=O)N2)[C@H](c2ccc(O)cc2)N2[C@H](c3ccccc3)[C@H](c3ccccc3)OC(=O)[C@H]2[C@@H]1C(=O)N1CCN(c2ncccn2)CC1	composite z-score	0.181
Cc1ccc(S[C@]2(C(=O)NCC(C)C)CC(=O)N(Cc3ccccc3)[C@@H]2c2ccc(CO)cc2)cc1	composite z-score	-0.152

---

Listing of recorded z-score by entry.
# experiment.summary: resazurin metabolic signal in HepG2 cells – cell-based, resazurin fluorescence, 24 h, PK04 Diversity Set, profiling panel (AID 1172); also: test concentration not given here
# setup.conditions: HepG2 viability, higher = more signal
parameter: z-score

compound	val
Cc1ccc(S[C@]2(C(=O)NCC(C)C)CC(=O)N(Cc3ccccc3)[C@@H]2c2ccc(CO)cc2)cc1	0.408
CCCCC(=O)N(Cc1ccccc1F)[C@@H]1CC(C(=O)NCCO)=C[C@H](Oc2c(I)cc(CO)cc2OC)[C@H]1O	-0.796
COc1ccccc1CN1C(=O)c2ccccc2[C@](Cc2ccccc2I)(C(=O)NC2CC2)[C@@H]1c1ccc(CO)cc1	-0.246
O=c1cccc(-c2ccc3ccccc3c2)o1	-0.321
CCCNC(=O)[C@@]1(c2ccc([N+](=O)[O-])cc2)CC(=O)N(CC23CC4CC(CC(C4)C2)C3)[C@@H]1c1ccc(CO)cc1I	-2.95
COc1ccc([Si](C)(C)[C@H]2[C@H](CC(=O)N3CCC[C@H]3CO)O[C@@]3(C(=O)N(Cc4cccc(N5CCC5=O)c4)c4ccccc43)[C@@H]2C)cc1	-1.26
COc1ccc(C(=O)Nc2cccc(CN3C(=O)[C@@]4(O[C@@H](CC(=O)N5Cc6ccccc6C[C@H]5CO)[C@H]([Si](C)(C)c5ccc(OC)cc5)[C@H]4C)c4ccccc43)c2)cc1	-0.79
C=CC[C@@]1(C(=O)NCCN2CCOCC2)N=C(c2ccc(OCCCO)cc2)O[C@@H]1c1ccccc1CN=[N+]=[N-]	-0.0014
C=CCOC(=O)[C@@H]1[C@H]2C(=O)O[C@H](c3ccccc3)[C@H](c3ccccc3)N2[C@H](c2ccc(OCCOC(=O)[C@H]3C[C@H]4C(=O)N[C@@H](Cc5ccccc5)C(=O)N4[C@H]3c3ccc(O)cc3)cc2)[C@@]12C(=O)Nc1ccc(I)cc12	-0.0291
COCCn1c(C(=O)N2CCCC2)cc2c1C[C@H]1CN(C(=O)c3ccccc3)[C@@](Cc3ccc(OC)cc3)(C(=O)OC)[C@@H]21	-0.818
C=CCC(OC(C)=O)[C@@H]1[C@@H](N(Cc2cc3ccccc3o2)C(=O)c2ccc(-c3ccccc3)cc2)c2cc(OCCCO)ccc2N1C(=O)Cc1ccc2ccccc2c1 (some centres undefined)	-0.795
CN(C)CCCC[C@@H]1NC(=O)[C@H]2C[C@@H](C(=O)NCCCCCNC(=O)CS)[C@@H](c3ccc(O)cc3)N2C1=O	-0.0707
[N-]=[N+]=Nc1ccccc1C[C@]1(C(=O)N2CCCCC2)N=C(c2ccc(OCCCO)cc2)O[C@H]1c1ccccc1N=[N+]=[N-]	-0.776
O=C(NCC(O)CO)[C@@]1(Cc2ccccc2)COC(c2ccc(OCCCO)cc2)=N1 (some centres undefined)	0.55
